Origin of values: the RNAGym collection of RNA variant scans (doi:10.7554/elife.90254)

B1: OR4K15 (parent)
chain: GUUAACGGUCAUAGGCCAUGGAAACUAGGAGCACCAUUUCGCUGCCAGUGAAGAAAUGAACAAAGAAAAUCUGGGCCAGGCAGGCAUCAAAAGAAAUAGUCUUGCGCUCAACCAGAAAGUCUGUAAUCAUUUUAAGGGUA

Variants of: B1
Experiment: self-cleavage, relative activity (ratio to wild type); higher = more cleavage; in vitro, sequencing; the parent is a self-cleaving ribozyme
Measured Metric: self-cleavage

- Variant: "U2C A62G"
  Val: 0.36

Now consider a different variant.
**Q:** What value of self-cleavage has been reported for the following variant? A30U A140G
**A:** 0.96
